System: K4 kissing-loop RNA reporter;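 note: bound reporter read as fluorescence of individual clusters on recovered sequencing chips by microscopy, with normalized cluster intensities fitted with a binding model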
method description: apparent KD of K4 kissing-loop reporter; higher = weaker reporter binding
settings: Eterna round: R107; input ligand: theophylline 20 uM
Category scheme (apparent KD of K4 kissing-loop reporter): c1 (below 200 nM), c2 (200 nM to below 300 nM), c3 (300 nM or more)

Example entries begin here.
- UUUACUCCGAGUGAUGUUCGGCGUAUCUGACGAGGACCGGUACGGCCGCCACUCGGUUCGACUACGAAGGCCUUGGCCACAGAUU: c2
- CCUAUCUCAUACGAUACCAGUCAACGAGUGAUGUUCGAAUAAAUAAAUUUGCCAUAUAAUGACCCUUGGCAGCGUAUGGGAUAGG [Ex Theophylline B K4 14]: c3
- CCGGGCGGCCGAAGGAGCGGGCGGACCCGAGUGAUGUUCGGGUGGCCCGUGAGGGCCGGUGCCCAGGUAGGUCGCGGAUCCGCCC [#2 Same State - Arginine B Attempt #3 (HarryS)]: c1
- AUAUGCAGGAGAAGGAGCGUCGUUGCAAGUGAUGUUUGCAAGCGAGCUUACUAUAUACGACGACAGGUAGGUCGCUCCUGCGUAA [Arg B Ex t2]: c1
- GUUACGCAUGGAAGGAGCGCAGGCUCAACAAGUAGCUCAGUGAUGUUGAGCAUAUUAAUUCUGCAGGUAGGUCGCCAUGUGUAAC [Ex Arginine B K4 26]: c3

Exercise: Sort into band: UGUACCGAGUCAGGAUAUCAACGACUGACAAAGUCGGUCGAAUAUCCAGUGAUGUUGGAAAAUAAAUGAGAAGGGACUUGGUACU [FmnBS 12 #SwitchBubble #StaticStem]
Solution: c3

Exercise: Proceed to CGAGAAAGAGCGACUGGCGAUCUGUCUGAAGGAGCGGGUGCUAGCCCAGGUAGGUCGCAGACCUUGACGCCAGUGAUGUUGGCGG [Ritiatso]
Solution: c2

Exercise: Proceed to GGAUAGGACAGAGGAUAUCCAGUGAUGUUGGAGAAUUCUCCUUCAACAUGUCACAAAAGUGGCAUGGGAGAAGGCUGUCCUAUCG [Mod of Eli's FmnBX 29 v2]
Solution: c1

Exercise: Proceed to CAUGGAGUGAUGCUCCAUGGUCGGGCUUGGCAGGAUAUGGGAUCUUCCAGAAGGGCCGAUCCCGGCGAGUGAUGUUCGCUGGUCU [Exclusion FMN A GF 28]
Solution: c3

Exercise: Proceed to AGGGCUGAGAGCGAUACCAGCGGUAACUGUAUGGUCCAAUAGAGUGAUGUUUUAUAGAGCCGCCCUUGGCAGCGCAAUCUAUUAG [XTheo-B5]
Solution: c1
